Recorded values, source the supplement of paper PMC10849652.

# Experimental Target: ZC3H18 (UniProt Q86VM9)
# Sequence (Q86VM9 whole entry, looked up): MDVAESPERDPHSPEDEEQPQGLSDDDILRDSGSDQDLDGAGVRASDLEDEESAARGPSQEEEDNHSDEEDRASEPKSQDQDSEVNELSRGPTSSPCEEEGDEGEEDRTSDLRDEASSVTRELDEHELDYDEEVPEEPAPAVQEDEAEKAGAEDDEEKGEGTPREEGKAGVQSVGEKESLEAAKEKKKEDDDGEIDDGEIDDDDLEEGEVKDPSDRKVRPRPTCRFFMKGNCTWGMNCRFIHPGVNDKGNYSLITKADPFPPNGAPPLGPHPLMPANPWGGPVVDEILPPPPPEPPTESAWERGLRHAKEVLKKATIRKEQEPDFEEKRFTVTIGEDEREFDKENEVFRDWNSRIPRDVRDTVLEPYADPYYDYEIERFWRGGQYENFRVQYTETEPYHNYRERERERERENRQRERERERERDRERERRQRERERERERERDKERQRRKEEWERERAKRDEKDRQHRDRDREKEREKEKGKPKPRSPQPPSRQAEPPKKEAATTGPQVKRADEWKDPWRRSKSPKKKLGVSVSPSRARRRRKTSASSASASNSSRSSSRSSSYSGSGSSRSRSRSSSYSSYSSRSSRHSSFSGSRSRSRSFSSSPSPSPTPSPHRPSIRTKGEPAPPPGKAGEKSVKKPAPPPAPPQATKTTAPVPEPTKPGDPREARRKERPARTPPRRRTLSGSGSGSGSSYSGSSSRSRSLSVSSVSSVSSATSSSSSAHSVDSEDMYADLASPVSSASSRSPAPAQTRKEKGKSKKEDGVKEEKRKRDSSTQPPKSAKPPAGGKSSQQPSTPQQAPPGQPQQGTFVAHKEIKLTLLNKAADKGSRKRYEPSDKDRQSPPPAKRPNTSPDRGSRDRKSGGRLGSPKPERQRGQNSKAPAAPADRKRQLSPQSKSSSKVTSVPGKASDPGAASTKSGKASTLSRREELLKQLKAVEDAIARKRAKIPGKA
# Assay Info: log2 fold change, soluble protein after heating vs DMSO (PISA); higher = thermal stabilisation; K562 cells, 10 uM, 30 min; active = over 0.2 and 3.5 SD of the protein, either way, in both replicates (recomputed)
The full data set covers some 7,900 targets. This sample favours those with a hit. About 0.6% of all pairs of compound and target were hits.
Known log2 fold change of a selection of compounds
Quantity: log2 fold change

INSERT INTO results (compound, quantity, value_reported) VALUES
  ('Cc1cccc(-c2[nH]c(C(C)(C)C)nc2-c2ccc3nccnc3c2)n1', 'log2 fold change', -0.029),
  ('C[C@@H]1COCCN1c1cc(C2(S(C)(=O)=O)CC2)nc(-c2cccc3[nH]ccc23)n1', 'log2 fold change', -0.008),
  ('O=C(CCCCCCC(=O)Nc1ccccc1)NO [vorinostat]', 'log2 fold change', 0.091),
  ('CN1CCN(CCOc2cc(OC3CCOCC3)c3c(Nc4c(Cl)ccc5c4OCO5)ncnc3c2)CC1 [saracatinib]', 'log2 fold change', -0.072),
  ('C#Cc1cccc(Nc2ncnc3cc(OCCOC)c(OCCOC)cc23)c1 [erlotinib]', 'log2 fold change', -0.066),
  ('CS(=O)(=O)N1CCN(Cc2cc3nc(-c4cccc5[nH]ncc45)nc(N4CCOCC4)c3s2)CC1 [pictilisib]', 'log2 fold change', -0.019),
  ('CC[C@H](C)[C@H](NC(=O)[C@H]([C@@H](C)CC)N(C)C(C)=O)C(=O)N[C@H](C(=O)N[C@@H](CC(C)C)C(=O)[C@@]1(C)CO1)[C@@H](C)O [epoxomicin]', 'log2 fold change', -0.059),
  ('COC(=O)[C@H](CCSC)NC(=O)c1ccc(NC[C@@H](N)CS)cc1-c1ccccc1', 'log2 fold change', 0.045);

====

# Experimental Target: YAE1 (UniProt Q9NRH1)
# Sequence (Q9NRH1 whole entry, looked up): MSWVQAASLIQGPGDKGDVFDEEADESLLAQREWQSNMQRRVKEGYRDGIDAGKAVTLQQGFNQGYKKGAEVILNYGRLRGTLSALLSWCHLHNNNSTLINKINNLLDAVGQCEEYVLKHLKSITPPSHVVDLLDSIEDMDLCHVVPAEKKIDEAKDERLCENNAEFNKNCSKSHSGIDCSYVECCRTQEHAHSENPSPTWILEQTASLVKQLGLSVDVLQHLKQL
# Assay Info: log2 fold change, soluble protein after heating vs DMSO (PISA); higher = thermal stabilisation; K562 cells, 10 uM, 30 min; active = over 0.2 and 3.5 SD of the protein, either way, in both replicates (recomputed)
Of roughly 7,900 targets only a part is listed; those with a hit were picked by preference. About 0.6% of all pairs of compound and target were hits.
Kindly return Met if reported log2 fold change is no lower than 0.04; return Not met if it is lower.

INSERT INTO measurements (compound, assigned_category) VALUES
  ('COc1cc2nc(-c3cc(F)ccc3O)nc(N[C@@H]3CNC[C@H]3C(C)(C)O)c2cc1OC', 'Met'),
  ('O=C(O)c1ccc2c(c1)nc(Nc1cccc(Cl)c1)c1ccncc12 [silmitasertib]', 'Not met'),
  ('O=C(CCCCCCC(=O)Nc1ccccc1)NO [vorinostat]', 'Met'),
  ('Cn1c2cc(S(C)=O)sc2c2cnn(Cc3cccc(N)c3)c(=O)c21 (stereo unspecified)', 'Met'),
  ('NC(=O)Nc1cc(-c2cccc(F)c2)sc1C(=O)N[C@H]1CCCNC1', 'Not met'),
  ('CC1=C(C(=O)Nc2cc3cn[nH]c3cc2F)C(c2ccc(C(F)(F)F)cc2)CC(=O)N1 (stereo unspecified)', 'Not met');

====

# Experimental Target: ZRANB2 (UniProt O95218)
# Sequence (O95218 whole entry, looked up): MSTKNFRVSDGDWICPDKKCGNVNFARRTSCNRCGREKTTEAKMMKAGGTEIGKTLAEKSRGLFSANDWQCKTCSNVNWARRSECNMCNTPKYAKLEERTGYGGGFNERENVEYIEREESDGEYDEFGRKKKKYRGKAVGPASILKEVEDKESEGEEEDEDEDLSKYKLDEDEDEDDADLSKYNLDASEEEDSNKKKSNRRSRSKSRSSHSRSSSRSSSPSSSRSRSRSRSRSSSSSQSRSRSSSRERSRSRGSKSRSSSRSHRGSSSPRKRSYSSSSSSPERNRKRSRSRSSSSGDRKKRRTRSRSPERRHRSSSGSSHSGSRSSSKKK
# Assay Info: log2 fold change, soluble protein after heating vs DMSO (PISA); higher = thermal stabilisation; K562 cells, 10 uM, 30 min; active = over 0.2 and 3.5 SD of the protein, either way, in both replicates (recomputed)
About 7,900 targets were measured; listed, in parts, are those with a hit and a random draw of the rest. About 0.6% of all pairs of compound and target were hits.
Quantity: log2 fold change

INSERT INTO measurements (molecule, experimental_target, quantity, value_reported) VALUES
  ('CNCc1ccc(-c2[nH]c3cc(F)cc4c3c2CCNC4=O)cc1 [rucaparib]', 'ZRANB2 (UniProt O95218)', 'log2 fold change', -0.034),
  ('O=C1NC(=O)C(c2cnc3ccccn23)=C1c1cn2c3c(cc(F)cc13)CN(C(=O)N1CCCCC1)CC2', 'ZRANB2 (UniProt O95218)', 'log2 fold change', 0.12),
  ('CC[C@@H]1C(=O)N(C)c2cnc(Nc3ccc(C(=O)N[C@H]4CC[C@H](N5CCN(CC6CC6)CC5)CC4)cc3OC)nc2N1C(C)C [volasertib]', 'ZRANB2 (UniProt O95218)', 'log2 fold change', 0.1),
  ('CCCCN(Cc1ccc(C(=O)NO)cc1)C(=O)Nc1ccccc1 [Nexturastat A]', 'ZRANB2 (UniProt O95218)', 'log2 fold change', -0.057),
  ('COc1cc2nc(-c3cc(F)ccc3O)nc(N[C@@H]3CNC[C@H]3C(C)(C)O)c2cc1OC', 'ZRANB2 (UniProt O95218)', 'log2 fold change', -0.006),
  ('COc1cccc2cc(-c3nc([C@H]4CC[C@H](C(=O)O)CC4)n4ncnc(N)c34)[nH]c12', 'ZRANB2 (UniProt O95218)', 'log2 fold change', -0.01),
  ('CCCS(=O)(=O)Nc1ccc(F)c(C(=O)c2c[nH]c3ncc(-c4ccc(Cl)cc4)cc23)c1F [vemurafenib]', 'ZRANB2 (UniProt O95218)', 'log2 fold change', -0.014),
  ('O=C(CCCCCCNC(=O)c1cnc(N(c2ccccc2)c2ccccc2Cl)nc1)NO [citarinostat]', 'ZRANB2 (UniProt O95218)', 'log2 fold change', -0.031);

====

# Experimental Target: ZNF622 (UniProt Q969S3)
# Sequence (Q969S3 whole entry, looked up): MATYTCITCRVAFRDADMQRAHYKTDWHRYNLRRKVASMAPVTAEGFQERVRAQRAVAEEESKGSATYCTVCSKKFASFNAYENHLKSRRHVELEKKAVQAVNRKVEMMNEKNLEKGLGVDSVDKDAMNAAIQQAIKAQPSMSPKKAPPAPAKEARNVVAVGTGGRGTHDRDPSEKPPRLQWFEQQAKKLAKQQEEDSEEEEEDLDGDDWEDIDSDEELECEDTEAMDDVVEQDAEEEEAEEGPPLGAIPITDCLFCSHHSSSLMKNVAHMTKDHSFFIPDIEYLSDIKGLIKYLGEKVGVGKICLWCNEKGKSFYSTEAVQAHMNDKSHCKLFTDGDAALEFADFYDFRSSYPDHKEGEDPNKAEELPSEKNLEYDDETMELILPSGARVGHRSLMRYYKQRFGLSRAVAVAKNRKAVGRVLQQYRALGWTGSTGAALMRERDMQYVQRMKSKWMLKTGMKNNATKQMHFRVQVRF
# Assay Info: log2 fold change, soluble protein after heating vs DMSO (PISA); higher = thermal stabilisation; K562 cells, 10 uM, 30 min; active = over 0.2 and 3.5 SD of the protein, either way, in both replicates (recomputed)
The full data set covers some 7,900 targets. This sample favours those with a hit. About 0.6% of all pairs of compound and target were hits.
Lab note: compare log2 fold change against 0.02. Equal or greater, write true (1). Smaller, write false (0).

INSERT INTO results (molecule, experimental_target, assigned_category) VALUES
  ('CCCS(=O)(=O)Nc1ccc(F)c(C(=O)c2c[nH]c3ncc(-c4ccc(Cl)cc4)cc23)c1F [vemurafenib]', 'ZNF622 (UniProt Q969S3)', 'false (0)'),
  ('Cc1cc(SCc2sc(-c3ccc(C(F)(F)F)cc3)nc2C)ccc1OCC(=O)O', 'ZNF622 (UniProt Q969S3)', 'false (0)'),
  ('CNC(=O)c1ccccc1Nc1nc(Nc2ccc(N3CCOCC3)cc2OC)ncc1Cl', 'ZNF622 (UniProt Q969S3)', 'true (1)'),
  ('c1cn2cc(-c3ccc4cn[nH]c4c3)nc(Nc3ccc(N4CCOCC4)cc3)c2n1 [entospletinib]', 'ZNF622 (UniProt Q969S3)', 'true (1)'),
  ('CS(=O)(=O)N1CCN(Cc2cc3nc(-c4cccc5[nH]ncc45)nc(N4CCOCC4)c3s2)CC1 [pictilisib]', 'ZNF622 (UniProt Q969S3)', 'true (1)'),
  ('Cc1cc(Nc2cc(N3CCN(C)CC3)nc(Sc3ccc(NC(=O)C4CC4)cc3)n2)n[nH]1 [tozasertib]', 'ZNF622 (UniProt Q969S3)', 'false (0)'),
  ('Cc1ccc(NC(=O)c2ccc(CN3CC[C@H](N(C)C)C3)c(C(F)(F)F)c2)cc1Nc1nccc(-c2cncnc2)n1 [bafetinib]', 'ZNF622 (UniProt Q969S3)', 'true (1)'),
  ('C[C@@H](Oc1cc(-c2cnn(C3CCNCC3)c2)cnc1N)c1c(Cl)ccc(F)c1Cl [crizotinib]', 'ZNF622 (UniProt Q969S3)', 'false (0)'),
  ('CCN(CCCOc1ccc2c(Nc3cc(CC(=O)Nc4cccc(F)c4)[nH]n3)ncnc2c1)CCOP(=O)(O)O [barasertib]', 'ZNF622 (UniProt Q969S3)', 'false (0)'),
  ('Cc1ccc(-n2nc(C(C)(C)C)cc2NC(=O)Nc2ccc(OCCN3CCOCC3)c3ccccc23)cc1 [doramapimod]', 'ZNF622 (UniProt Q969S3)', 'false (0)'),
  ('FC(F)(F)c1ccc(/C=C/c2nc(COc3ccc(CCCCn4ccnn4)cc3)co2)cc1 [mubritinib]', 'ZNF622 (UniProt Q969S3)', 'false (0)'),
  ('Cn1cc(-c2ccc3c(c2)CCN3C(=O)Cc2cccc(C(F)(F)F)c2)c2c(N)ncnc21', 'ZNF622 (UniProt Q969S3)', 'true (1)'),
  ('CC(C)(C)Cn1c(N)nc2ccc(-c3[nH]c(C(C)(C)C)nc3-c3ccc(F)cc3)nc21 [ralimetinib]', 'ZNF622 (UniProt Q969S3)', 'false (0)'),
  ('CN(CCOc1ccc(C[C@@H]2SC(=O)NC2=O)cc1)c1ccccn1 (racemic) [rosiglitazone]', 'ZNF622 (UniProt Q969S3)', 'true (1)');
